Assay Procedure: qHTS of pediatric cancer cell lines to identify multiple opportunities for drug repurposing: Primary screen for BT-12 cells (AID 1347101); further: nearly all actives have a fitted effect of over 25% in size
Experimental Conditions: BT-12 viability, CellTiter-Glo luminescence, 48 h; series mostly up to 57.3 µM
Records with an inconclusive call do not appear. Activity calls are given as the source filed them. The call rests on the fitted dose curve; in most records, active means well fitted cell-killing curve with a large enough effect; inconclusive means small, poorly fitted or top-dose-only effect; inactive means flat fitted curve, though single readings scatter.
Hello, when you answer, please use one of the following outcomes: true (1) (active), false (0) (inactive)

Ask: For this compound, state the assay outcome: Cc1cc(Nc2cc(N3CCN(C)CC3)nc(C=Cc3ccccc3)n2)n[nH]1
Reply: true (1)

Ask: For this compound, state the assay outcome: COc1ccc(C(=O)CC2(O)C(=O)Nc3c(Cl)ccc(Cl)c32)cc1 (stereo not drawn)
Reply: true (1)

Ask: For this compound, state the assay outcome: COc1cc2c(NC3CCN(C(C)C)CC3)nc(C3CCCCC3)nc2cc1OCCCN1CCCC1
Reply: true (1)

Ask: For this compound, state the assay outcome: COCCn1c2c([n+](Cc3cnccn3)c1C)C(=O)c1ccccc1C2=O
Reply: true (1)

Ask: For this compound, state the assay outcome: O=c1[nH]nc(Sc2ncc([N+](=O)[O-])s2)n1-c1ccc2c(c1)OCCO2
Reply: true (1)

Ask: For this compound, state the assay outcome: C=CC(=O)Nc1cc2c(Nc3ccc(F)c(Cl)c3)ncnc2cc1OCCCN1CCOCC1
Reply: true (1)

Ask: For this compound, state the assay outcome: C=CCn1c(=O)c2cnc(Nc3ccc(N4CCN(C)CC4)cc3)nc2n1-c1cccc(C(C)(C)O)n1
Reply: true (1)

Ask: For this compound, state the assay outcome: COc1cc(=C2C=c3ccccc3=N2)[nH]c1=Cc1[nH]c(C)cc1C
Reply: true (1)

Ask: For this compound, state the assay outcome: CCCNC(=O)Nc1ccc(Oc2ncnc3cc(OC)c(OC)cc23)cc1Cl
Reply: false (0)

Ask: For this compound, state the assay outcome: CC(C)C[C@H](NC(=O)CNC(=O)c1cc(Cl)ccc1Cl)B(O)O
Reply: true (1)

Ask: For this compound, state the assay outcome: CC[C@H]1CN2CCc3cc(OC)c(OC)cc3[C@H]2C[C@@H]1C[C@@H]1NCCc2cc(OC)c(OC)cc21
Reply: true (1)

Ask: For this compound, state the assay outcome: Cn1c(CNc2ccc(C(=N)N)cc2)nc2cc(C(=O)N(CCC(=O)O)c3ccccn3)ccc21
Reply: false (0)

Ask: For this compound, state the assay outcome: CC(=O)SC[C@@H](C)C(=O)N1CCC[C@H]1C(=O)N[C@@H](Cc1ccccc1)C(=O)O
Reply: false (0)

Ask: For this compound, state the assay outcome: Cc1cnc(Nc2ccc(F)cc2Cl)nc1-c1c[nH]c(C(=O)N[C@H](CO)c2cccc(Cl)c2)c1
Reply: true (1)

Ask: For this compound, state the assay outcome: O=C(C=Cc1c(C(=O)O)[nH]c2cc(Cl)cc(Cl)c12)Nc1ccccc1
Reply: false (0)

Ask: For this compound, state the assay outcome: Cc1ccc2nc(NC(=O)CSc3nc4c(c(=O)n3-c3ccccc3)SCC4)sc2c1
Reply: true (1)

Ask: For this compound, state the assay outcome: Nc1ncnc2c1c(-c1cccc(OCc3ccccc3)c1)cn2C1CC(CN2CCCC2)C1 (stereo not drawn)
Reply: true (1)

Ask: For this compound, state the assay outcome: NC(=O)c1c(OCc2c(F)cc(Br)cc2F)nsc1NC(=O)NCCCCN1CCCC1
Reply: true (1)

The measured values listed here are drawn from PubChem BioAssay (NCATS).
